system: morningglory; test: Test B pre/postemergence morningglory; format: in vivo, Ipomoea hederacea; settings: Preemergence, Rate 125 g/ha; 0 is no effect, 10 is complete control
The entries below are paired with their reported Morningglory plant response rating (0 to 10 scale).
Please reply with the value in numeric form only.

Previously resolved entries follow.
Fill blank: measured Morningglory plant response rating (0 to 10 scale) of the molecule CC(C)N(C(=O)n1oc(=O)n(N(C)C)c1=O)c1ccc(F)cc1 [Compound 170] is ____. 3

Please report the recorded Morningglory plant response rating (0 to 10 scale) for Cc1nsc(C)c1-n1c(=O)on(C(=O)N(c2ccc(Cl)cc2)C(C)C)c1=O [Compound 159] . 0

Which Morningglory plant response rating (0 to 10 scale) is reported for this molecule? CC(C)N(C(=O)n1oc(=O)n(-c2cnn(C)c2)c1=O)c1ccccc1 [Compound 123] 0

I would be grateful if you could share the reported Morningglory plant response rating (0 to 10 scale) for CC(C)N(Cc1ccccc1)C(=O)n1oc(=O)n(C(C)C)c1=O [Compound 165] . 0

// next item, Morningglory plant response rating (0 to 10 scale) requested
Given the molecule C=CCn1c(=O)on(C(=O)N(c2ccc(F)cc2)C2CC2)c1=O [Compound 154] , what is its reported Morningglory plant response rating (0 to 10 scale)? 0
